system: Bacillus pumilus; assay: Antibacterial activity against Bacillus pumilus ATCC63202 by broth microdilution method; type: functional

# structureSmiles, targetUnderTest, MIC
measured = [
    ("CCCCCCCCCC(=O)N[C@@H](Cc1c[nH]c2ccccc12)C(=O)N[C@H](CC(N)=O)C(=O)N[C@@H](CC(=O)O)C(=O)N[C@@H]1C(=O)NCC(=O)N[C@@H](CCCN)C(=O)N[C@@H](CC(=O)O)C(=O)N[C@H](C)C(=O)N[C@@H](CC(=O)O)C(=O)NCC(=O)N[C@H](CO)C(=O)N[C@@H]([C@H](C)CC(=O)O)C(=O)N[C@@H](CC(=O)c2ccccc2N)C(=O)O[C@@H]1C", "Bacillus pumilus", "≤ 5 µg/mL"),
    ("CCCCCCCCCC(=O)NC[C@@H](C)C(=O)NCC(=O)N[C@H](CCC(=O)O)C(=O)N[C@@H](Cc1ccc(O)cc1)C(=O)N[C@@H]1C(=O)N[C@H]([C@H](C)CC)C(=O)N[C@@H](CC(=O)O)C(=O)N[C@@H]([C@@H](O)C(=O)OC)C(=O)N2CCC[C@H]2C(=O)NCC(=O)N[C@H](CCC(=O)O)C(=O)N[C@@H](CCC(=O)O)C(=O)N(C)CC(=O)O[C@@H]1C", "Bacillus pumilus", "≥ 128 µg/mL"),
    ("CCCCCCCCC(=O)NC[C@@H](C)C(=O)NCC(=O)N[C@H](CCC(=O)O)C(=O)N[C@@H](Cc1ccc(O)cc1)C(=O)N[C@@H]1C(=O)N[C@H]([C@H](C)CC)C(=O)N[C@@H](CC(=O)O)C(=O)N[C@@H]([C@@H](O)C(=O)O)C(=O)N2CCC[C@H]2C(=O)NCC(=O)N[C@H](CCC(=O)O)C(=O)N[C@@H](CCC(=O)O)C(=O)N(C)CC(=O)O[C@@H]1C", "Bacillus pumilus", "≥ 128 µg/mL"),
    ("CCCCCCCCCC(=O)NC[C@@H](C)C(=O)NCC(=O)N[C@H](CCC(=O)O)C(=O)N[C@@H](Cc1ccc(O)cc1)C(=O)N[C@@H]1C(=O)N[C@H]([C@H](C)CC)C(=O)N[C@@H](CC(=O)O)C(=O)N[C@@H]([C@@H](O)C(=O)O)C(=O)N2CCC[C@H]2C(=O)NCC(=O)N[C@H](CCC(=O)O)C(=O)N[C@@H](CCC(=O)O)C(=O)N(C)CC(=O)O[C@@H]1C", "Bacillus pumilus", "≥ 128 µg/mL"),
    ("CCCCCCCCC(=O)NC[C@@H](C)C(=O)NCC(=O)N[C@H](CCC(=O)O)C(=O)N[C@@H](Cc1ccc(O)cc1)C(=O)N[C@@H]1C(=O)N[C@H]([C@H](C)CC)C(=O)N[C@@H](CC(=O)O)C(=O)N[C@@H]([C@@H](O)C(=O)OC)C(=O)N2CCC[C@H]2C(=O)NCC(=O)N[C@H](CCC(=O)O)C(=O)N[C@@H](CCC(=O)O)C(=O)N(C)CC(=O)O[C@@H]1C", "Bacillus pumilus", "≥ 128 µg/mL"),
    ("CCCCCCCC(=O)NC[C@@H](C)C(=O)NCC(=O)N[C@H](CCC(=O)O)C(=O)N[C@@H](Cc1ccc(O)cc1)C(=O)N[C@@H]1C(=O)N[C@H]([C@H](C)CC)C(=O)N[C@@H](CC(=O)O)C(=O)N[C@@H](CC(=O)O)C(=O)N2CCC[C@H]2C(=O)NCC(=O)N[C@H](CCC(=O)O)C(=O)N[C@@H](CCC(=O)O)C(=O)N(C)CC(=O)O[C@@H]1C", "Bacillus pumilus", "≥ 128 µg/mL"),
]

---

Examples of compounds with documented MIC follow.
test system: Pseudomonas aeruginosa; test: Antibacterial activity against Pseudomonas aeruginosa ATCC27853 by broth microdilution method; format: functional
property: MIC

# structureSmiles, result
rows = [
    ("CCCCCCCC(=O)NC[C@@H](C)C(=O)NCC(=O)N[C@H](CCC(=O)O)C(=O)N[C@@H](Cc1ccc(O)cc1)C(=O)N[C@@H]1C(=O)N[C@H]([C@H](C)CC)C(=O)N[C@@H](CC(=O)O)C(=O)N[C@@H](CC(=O)O)C(=O)N2CCC[C@H]2C(=O)NCC(=O)N[C@H](CCC(=O)O)C(=O)N[C@@H](CCC(=O)O)C(=O)N(C)CC(=O)O[C@@H]1C", "≥ 128 µg/mL"),
    ("CCCCCCCCCC(=O)NC[C@@H](C)C(=O)NCC(=O)N[C@H](CCC(=O)O)C(=O)N[C@@H](Cc1ccc(O)cc1)C(=O)N[C@@H]1C(=O)N[C@H]([C@H](C)CC)C(=O)N[C@@H](CC(=O)O)C(=O)N[C@@H]([C@@H](O)C(=O)OC)C(=O)N2CCC[C@H]2C(=O)NCC(=O)N[C@H](CCC(=O)O)C(=O)N[C@@H](CCC(=O)O)C(=O)N(C)CC(=O)O[C@@H]1C", "≥ 128 µg/mL"),
    ("CCCCCCCCC(=O)NC[C@@H](C)C(=O)NCC(=O)N[C@H](CCC(=O)O)C(=O)N[C@@H](Cc1ccc(O)cc1)C(=O)N[C@@H]1C(=O)N[C@H]([C@H](C)CC)C(=O)N[C@@H](CC(=O)O)C(=O)N[C@@H]([C@@H](O)C(=O)O)C(=O)N2CCC[C@H]2C(=O)NCC(=O)N[C@H](CCC(=O)O)C(=O)N[C@@H](CCC(=O)O)C(=O)N(C)CC(=O)O[C@@H]1C", "≥ 128 µg/mL"),
]

---

Below, each entry is listed alongside its reported MIC.
test system: Pseudomonas aeruginosa; test: Antibacterial activity against Pseudomonas aeruginosa ATCC27853 by broth microdilution method; format: functional

# structureSmiles, MIC
data = [
    ("CCCCCCCCC(=O)NC[C@@H](C)C(=O)NCC(=O)N[C@H](CCC(=O)O)C(=O)N[C@@H](Cc1ccc(O)cc1)C(=O)N[C@@H]1C(=O)N[C@H]([C@H](C)CC)C(=O)N[C@@H](CC(=O)O)C(=O)N[C@@H]([C@@H](O)C(=O)OC)C(=O)N2CCC[C@H]2C(=O)NCC(=O)N[C@H](CCC(=O)O)C(=O)N[C@@H](CCC(=O)O)C(=O)N(C)CC(=O)O[C@@H]1C", "≥ 128 µg/mL"),
    ("CCCCCCCCCC(=O)N[C@@H](Cc1c[nH]c2ccccc12)C(=O)N[C@H](CC(N)=O)C(=O)N[C@@H](CC(=O)O)C(=O)N[C@@H]1C(=O)NCC(=O)N[C@@H](CCCN)C(=O)N[C@@H](CC(=O)O)C(=O)N[C@H](C)C(=O)N[C@@H](CC(=O)O)C(=O)NCC(=O)N[C@H](CO)C(=O)N[C@@H]([C@H](C)CC(=O)O)C(=O)N[C@@H](CC(=O)c2ccccc2N)C(=O)O[C@@H]1C", "≤ 5 µg/mL"),
    ("CCCCCCCCCC(=O)NC[C@@H](C)C(=O)NCC(=O)N[C@H](CCC(=O)O)C(=O)N[C@@H](Cc1ccc(O)cc1)C(=O)N[C@@H]1C(=O)N[C@H]([C@H](C)CC)C(=O)N[C@@H](CC(=O)O)C(=O)N[C@@H]([C@@H](O)C(=O)O)C(=O)N2CCC[C@H]2C(=O)NCC(=O)N[C@H](CCC(=O)O)C(=O)N[C@@H](CCC(=O)O)C(=O)N(C)CC(=O)O[C@@H]1C", "≥ 128 µg/mL"),
]

Values were extracted from ChEMBL document CHEMBL5523689.
